The reported measurements were obtained from patent US20250195521A1.

molecular target: NRAS G12C (Homo sapiens (Human), UniProt P01111+P62937, G12C); assay: Ras-Raf disruption/FRET/MOA assay (BRAF RBD, Cyclophilin A); format: biochemical; details: read-out: NRAS G12C FRET data IC50
Sequence (P01111 whole entry G12C): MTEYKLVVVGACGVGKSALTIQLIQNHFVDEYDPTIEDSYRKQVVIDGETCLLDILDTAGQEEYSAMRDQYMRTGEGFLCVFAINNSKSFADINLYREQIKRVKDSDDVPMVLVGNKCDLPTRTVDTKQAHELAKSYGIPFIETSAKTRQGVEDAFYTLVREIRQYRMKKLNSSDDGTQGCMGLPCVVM
Sequence (P62937 whole entry): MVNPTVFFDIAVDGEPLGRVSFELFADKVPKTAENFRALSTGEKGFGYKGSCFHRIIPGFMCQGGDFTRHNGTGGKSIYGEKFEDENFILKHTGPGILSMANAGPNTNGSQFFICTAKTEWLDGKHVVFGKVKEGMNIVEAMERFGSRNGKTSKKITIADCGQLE
pIC50: −log10 of the molar value.
measure_name: pIC50

### Prompt // pIC50 lookup, key: CCn1c(-c2cccnc2[C@H](C)OC)c2c3cc(ccc31)-c1csc(n1)C[C@H](NC(=O)[C@H](C(C)C)N(C)C(=O)N1C[C@H]3CCN(C)[C@H]3C1)C(=O)N1CCC[C@H](N1)C(=O)OCC(C)(C)C2 [Compound A568]
### Response 6.00 to 7.00

### Prompt Same question, CCn1c(-c2cccnc2[C@H](C)OC)c2c3cc(ccc31)-c1cc(O)cc(c1)C[C@H](NC(=O)[C@H](C(C)C)N(C)C(=O)[C@H]1C[C@H]1F)C(=O)N1CCC[C@H](N1)C(=O)OCC(C)(C)C2 [Compound A162] this time
### Response 7.00 to 8.00

Continuing:
### Prompt // pIC50 lookup, key: CCn1c(-c2cccnc2[C@H](C)OC)c2c3cc(ccc31)-c1csc(n1)C[C@H](NC(=O)N1CCC1)C(=O)N1CCC[C@H](N1)C(=O)OCC(C)(C)C2 [Compound A368]
### Response 6.00 to 7.00

### Prompt Same question, CCn1c(-c2cccnc2[C@H](C)OC)c2c3cc(ccc31)-c1csc(n1)C[C@H](NC(=O)[C@H](C(C)C)N1CCC3(CCN(S(C)(=O)=O)C3)C1=O)C(=O)N1CCC[C@H](N1)C(=O)OCC(C)(C)C2 (stereo partly shown) [Compound A220] this time
### Response 5.00 to 6.00

### Prompt Same question, CCn1c(-c2cccnc2[C@H](C)OC)c2c3cc(ccc31)-c1csc(n1)C[C@H](NC(=O)[C@H](C(C)C)N(C)C(=O)N1CCC[C@H](N(C)C)CC1)C(=O)N1CCC[C@H](N1)C(=O)OCC(C)(C)C2 [Compound A493] this time
### Response 7.00 to 8.00

### Prompt Same question, CCn1c(-c2cccnc2[C@H](C)OC)c2c3cc(ccc31)-c1cc(O)cc(c1)C[C@H](NC(=O)[C@@H]1[C@@H](C)CCCN1C(C)=O)C(=O)N1CCC[C@H](N1)C(=O)OCC(C)(C)C2 [Compound A324] this time
### Response 6.00 to 7.00

### Prompt Same question, CCn1c(-c2cccnc2[C@H](C)OC)c2c3cc(ccc31)-c1csc(n1)C[C@H](NC(=O)[C@H](C(C)C)N(C)C(=O)N1CC3(CCN(C)C3)C1)C(=O)N1CCC[C@H](N1)C(=O)OCC(C)(C)C2 [Compound A602] this time
### Response 6.00 to 7.00

----------
Each item that follows carries a reported pIC50.
biological target: KRAS WT (Homo sapiens (Human), UniProt P01116+P62937); assay: Ras-Raf disruption/FRET/MOA assay, KRAS WT; type: biochemical; settings: read-out: KRAS WT FRET IC50
Sequence (P01116 other isoform, or with tags, fused parts or gaps, one chain of several): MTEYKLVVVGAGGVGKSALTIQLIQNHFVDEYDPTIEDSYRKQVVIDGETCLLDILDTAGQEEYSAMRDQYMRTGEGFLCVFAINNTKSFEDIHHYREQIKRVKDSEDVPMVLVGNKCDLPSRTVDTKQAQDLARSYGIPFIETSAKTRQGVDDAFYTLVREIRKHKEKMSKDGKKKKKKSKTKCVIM
pIC50: −log10 of the molar value.

As a guide, the following entries are already answered.
### Prompt // pIC50 lookup, key: CCn1c(-c2cnccc2COC)c2c3cc(ccc31)-c1cc(O)cc(c1)C[C@H](NC(=O)[C@H](C(C)C)N(C)C(=O)C1CN(C(=O)[C@@H]3CN3)C1)C(=O)N1CCC[C@H](N1)C(=O)OCC(C)(C)C2
### Response 6.00 to 7.00

### Prompt Same question, CCn1c(-c2cnccc2COC)c2c3cc(ccc31)-c1cc(O)cc(c1)C[C@H](NC(=O)[C@H](C(C)C)N(C)C(=O)[C@H]1CCN(C(=O)[C@@H]3CN3)C1)C(=O)N1CCC[C@H](N1)C(=O)OCC(C)(C)C2 this time
### Response 6.00 to 7.00

### Prompt Same question, CCn1c(-c2cnccc2COC)c2c3cc(ccc31)-c1cccc(c1)C[C@H](NC(=O)[C@H](C(C)C)N1CC[C@H](CN=C=Nc3ccc(OC)cc3)C1)C(=O)N1CCC[C@H](N1)C(=O)OCC(C)(C)C2 this time
### Response < 5.00

### Prompt Same question, CCn1c(-c2cnccc2COC)c2c3cc(ccc31)-c1cc(O)cc(c1)C[C@H](NC(=O)[C@H](C(C)C)N(C)C(=O)CN1C(=O)[C@H]3N[C@H]3C1=O)C(=O)N1CCC[C@H](N1)C(=O)OCC(C)(C)C2 this time
### Response 6.00 to 7.00

### Prompt Same question, CCn1c(-c2cccnc2[C@H](C)OC)c2c3cc(ccc31)-c1cccc(c1)C[C@H](NC(=O)[C@H](C(C)C)N1CC[C@@H](CN=C=NCCOC)C1)C(=O)N1CCC[C@H](N1)C(=O)OCC(C)(C)C2 this time
### Response 6.00 to 7.00

### Prompt Same question, CCn1c(-c2cnccc2COC)c2c3cc(ccc31)-c1cc(O)cc(c1)C[C@H](NC(=O)[C@@H](CN(C)C(=O)[C@H]1CN1)C(C)C)C(=O)N1CCC[C@H](N1)C(=O)OCC(C)(C)C2 this time
### Response < 5.00

Continuing:
### Prompt // pIC50 lookup, key: CCn1c(-c2cnccc2COC)c2c3cc(ccc31)-c1cc(O)cc(c1)C[C@H](NC(=O)[C@H](C(C)C)N(C)C(=O)CCN(C)C(=O)[C@@H]1CN1)C(=O)N1CCC[C@H](N1)C(=O)OCC(C)(C)C2
### Response 6.00 to 7.00

### Prompt Same question, CCn1c(-c2cnccc2COC)c2c3cc(ccc31)-c1cc(O)cc(c1)C[C@H](NC(=O)[C@@H](CCNC1=NCCO1)C(C)C)C(=O)N1CCC[C@H](N1)C(=O)OCC(C)(C)C2 this time
### Response 5.00 to 6.00

### Prompt Same question, CCn1c(-c2cccnc2[C@H](C)OC)c2c3cc(ccc31)-c1cc(O)cc(c1)C[C@H](NC(=O)[C@H](C(C)C)N1CC[C@@]3(CCC(C(=O)[C@@H]4N[C@@H]4C4CC4)C3)C1=O)C(=O)N1CCC[C@H](N1)C(=O)OCC(C)(C)C2 (stereo partly shown) this time
### Response 6.00 to 7.00

### Prompt Same question, CCn1c(-c2cnccc2COC)c2c3cc(ccc31)-c1cc(O)cc(c1)C[C@H](NC(=O)[C@@H](CCNC(=O)NCCCl)C(C)C)C(=O)N1CCC[C@H](N1)C(=O)OCC(C)(C)C2 this time
### Response 5.00 to 6.00
